test system: Sodium/Iodide Symporter (NIS), SLC5A5 (gene 6528); assay: CPHEA_Stoker_NIS_Inhibition_RAIU: CPHEA's Radioactive Iodide Uptake (RAIU) Assay for Sodium/Iodide Symporter (NIS) Inhibition, Stoker and Laws Labs (AID 2283841)
Results filed as inconclusive are left out. Active and inactive are the calls of the source. Rule for the calls: active = hit-call score of the fitted dose curve at least 0.9, where 1 is the maximum; inconclusive = response in the unintended direction; inactive = score below 0.9.
I would appreciate it if you answered using one of these outcomes: active, inactive

Before answering, review these 6 worked examples.
> print(dat)
                                   compound  assigned.class
1                 CCCCCCCCCCCCCCOS(=O)(=O)O        inactive
2  CCN(CC)CCOc1ccc(C(=C(Cl)c2ccccc2)c2ccccc2)cc1        inactive
3  CCCCCCC(CCCCCCCCCCC(=O)OCC(COC(C)=O)OC(C)=O)OC(C)=O (stereo not drawn)        inactive
4    O=C(Oc1ccccc1)c1cccc(C(=O)Oc2ccccc2)c1        inactive
5  CCC(C)N(C)C(=O)c1cc2ccccc2c(-c2ccccc2Cl)n1 (stereo not drawn)          active
6                            O=Cc1ccccc1C=O        inactive

## Task Could you check what this test reported for `CN(C)CCCN1c2ccccc2Sc2ccc(Cl)cc21` ?
## Result inactive

## Task Could you check what this test reported for CC(COCC(C)OC(=O)c1ccccc1)OC(=O)c1ccccc1 (stereo not drawn) ?
## Result inactive

---

experiment: CEETOX_H295R_OHPREG: CeeTox H295R High-throughput Steroidogenesis Assay for OH-Pregnenolone (OHPREG) (AID 2283434); conditions: actives raise or lower the signal
The source made the active and inactive calls. The calls were made as follows: active = hit-call score of the fitted dose curve at least 0.9, where 1 is the maximum; inactive = score below 0.9.
I would appreciate it if you answered using one of these outcomes: active, inactive

> print(dat)
                                 smiles.str  assigned.class
1  CC(=O)O[C@]1(C(C)=O)CC[C@H]2[C@@H]3C=C(Cl)C4=CC(=O)[C@@H]5C[C@@H]5[C@]4(C)[C@H]3CC[C@@]21C          active

## Task Could you check what this test reported for `CCN(CC)CCOc1ccc(C(=C(Cl)c2ccccc2)c2ccccc2)cc1` ?
## Result active

## Task Could you check what this test reported for `CC(=O)[C@@]1(O)CC[C@H]2[C@@H]3CCC4=CC(=O)CC[C@]4(C)[C@H]3CC[C@@]21C` ?
## Result active

## Task Could you check what this test reported for `CN(C)C(=O)NC1(c2ccccc2)CCN(CCC[C@]2(c3ccc(Cl)c(Cl)c3)CCCN(C(=O)c3ccccc3)C2)CC1` ?
## Result inactive

---

assay: LTEA_HepaRG_LDH_cytotoxicity: Cytotoxicity Assessment in the Life Technologies and Expression Analysis (LTEA) Assay (AID 2283563)
Activity calls are given as the source filed them. Rule for the calls: active = hit-call score of the fitted dose curve at least 0.9, where 1 is the maximum; inconclusive = response in the unintended direction; inactive = score below 0.9.
I would appreciate it if you answered using one of these outcomes: Y = active, N = inactive

Before answering, review these 8 worked examples.
> print(dat)
                                   compound  assigned.class
1  CC(=O)S[C@H](C(=O)N[C@H]1Cc2ccccc2[C@H]2CCC[C@@H](C(=O)O)N2C1=O)C(C)C               N
2  CC(=O)OC1CC(C)OC(C)O1 (configuration not stated)               N
3    CCCCC(CC)CO (configuration not stated)               N
4                                Oc1ccccc1O               N
5  CC(=O)[C@@]1(O)CC[C@H]2[C@@H]3CCC4=CC(=O)CC[C@]4(C)[C@H]3CC[C@@]21C               N
6                  O=C(O)CN(CC(=O)O)CC(=O)O               N
7  Nc1nc(Cl)nc2c1ncn2[C@H]1C[C@H](O)[C@@H](CO)O1               Y
8                            Cc1occc(=O)c1O               N

## Task Could you check what this test reported for `Cn1cnc2c1c(=O)[nH]c(=O)n2C` ?
## Result N

## Task Could you check what this test reported for `CC1(C)C(=O)NC(=O)N1CO` ?
## Result N

## Task Could you check what this test reported for `CN(C)CCCN1c2ccccc2Sc2ccc(Cl)cc21` ?
## Result Y

## Task Could you check what this test reported for `S=c1[nH]c2ccccc2s1` ?
## Result N

Values were extracted from PubChem BioAssay (EPA / NIEHS).
